# melting point values compiled below
readout-kind: melting point

- COc1ccc2cc([C@H](C)C(=O)Nc3ccc(S(=O)(=O)Nc4cc(C)on4)cc3)ccc2c1 [Conjugate 8]: 178 to 180 °C
- COc1ccc2cc([C@H](C)C(=O)Nc3ccc(S(=O)(=O)Nc4onc(C)c4C)cc3)ccc2c1 [Conjugate 4]: 241 to 243 °C
- COc1ccc2cc([C@H](C)C(=O)Nc3ccc(S(=O)(=O)Nc4ncccn4)cc3)ccc2c1 [Conjugate 6]: 163 to 165 °C

====

test system: carrageenan-induced acute inflammation in mice; experiment: Carrageenan-induced paw edema anti-inflammatory study; format: in vivo; conditions: 3 h, 10 mg/kg intraperitoneally, n = 6
Please mark label 1 if the recorded % inhibition of paw edema is equal to or greater than 80%, and label 0 if it falls below.

* COc1ccc2cc([C@H](C)C(=O)O)ccc2c1 [Naproxen, reference compound] | label 0
* COc1ccc2cc([C@H](C)C(=O)Nc3ccc(S(=O)(=O)Nc4cc(C)on4)cc3)ccc2c1 [Conjugate 8] | label 1
* COc1ccc2c(c1)c(CC(=O)O)c(C)n2C(=O)c1ccc(Cl)cc1 [Indomethacin, reference compound] | label 1
* COc1ccc2cc([C@H](C)C(=O)Nc3ccc(S(=O)(=O)Nc4nccs4)cc3)ccc2c1 [Conjugate 5] | label 0

====

# % inhibition of paw edema values compiled below
test system: carrageenan-induced acute inflammation in mice; assay: Carrageenan-induced paw edema anti-inflammatory study; assay type: in vivo; conditions: 1 h, 10 mg/kg intraperitoneally, n = 6
readout-kind: % inhibition of paw edema (%)

• COc1ccc2cc([C@H](C)C(=O)Nc3ccc(S(=O)(=O)Nc4cc(C)on4)cc3)ccc2c1 [Conjugate 8] = 24.1
• COc1ccc2c(c1)c(CC(=O)O)c(C)n2C(=O)c1ccc(Cl)cc1 [Indomethacin, reference compound] = 20.1
• COc1ccc2cc([C@H](C)C(=O)O)ccc2c1 [Naproxen, reference compound] = 21.1
• COc1ccc2cc([C@H](C)C(=O)Nc3ccc(S(=O)(=O)Nc4nccs4)cc3)ccc2c1 [Conjugate 5] = 9.1
• COc1ccc2cc([C@H](C)C(=O)Nc3ccc(S(=O)(=O)Nc4onc(C)c4C)cc3)ccc2c1 [Conjugate 4] = 8.2

====

molecular target: UniProtKB P07374; conditions: read-out: IC50 (µM); mean ± SEM; jack bean urease, n = 3, thiourea as standard
readout-kind: IC50 (µM)

• NC(N)=S [Thiourea, reference compound] = 22.6

====

molecular target: jack bean urease (Canavalia ensiformis, UniProt P07374); conditions: read-out: Ki (inhibition constant); secondary Lineweaver Burk plot
Sequence (P07374 whole entry, looked up): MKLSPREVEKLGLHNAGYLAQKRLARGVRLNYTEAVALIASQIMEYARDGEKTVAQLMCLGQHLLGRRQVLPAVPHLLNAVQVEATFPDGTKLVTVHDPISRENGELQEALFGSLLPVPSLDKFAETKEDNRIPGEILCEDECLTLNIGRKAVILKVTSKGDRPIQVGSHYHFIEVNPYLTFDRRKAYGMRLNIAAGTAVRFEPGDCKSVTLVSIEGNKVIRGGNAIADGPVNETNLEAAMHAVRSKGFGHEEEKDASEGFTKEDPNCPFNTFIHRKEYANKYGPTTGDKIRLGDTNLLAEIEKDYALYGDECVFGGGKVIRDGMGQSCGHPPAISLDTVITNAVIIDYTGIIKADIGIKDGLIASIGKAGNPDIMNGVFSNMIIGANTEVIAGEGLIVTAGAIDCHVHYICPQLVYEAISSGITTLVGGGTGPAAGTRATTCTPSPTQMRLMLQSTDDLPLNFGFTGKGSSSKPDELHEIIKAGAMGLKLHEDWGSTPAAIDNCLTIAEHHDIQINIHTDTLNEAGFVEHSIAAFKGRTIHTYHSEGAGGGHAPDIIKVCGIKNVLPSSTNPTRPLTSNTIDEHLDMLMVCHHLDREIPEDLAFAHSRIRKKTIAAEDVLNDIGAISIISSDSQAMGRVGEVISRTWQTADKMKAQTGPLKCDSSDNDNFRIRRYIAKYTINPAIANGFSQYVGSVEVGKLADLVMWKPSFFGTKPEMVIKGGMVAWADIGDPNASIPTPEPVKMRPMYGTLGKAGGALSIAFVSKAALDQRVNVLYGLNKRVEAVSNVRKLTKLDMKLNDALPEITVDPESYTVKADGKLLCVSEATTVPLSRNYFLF
pKi: −log10 of the molar value.
readout-kind: pKi

* NC(N)=S [Thiourea, reference compound] | 4.74

====

molecular target: jack bean urease (Canavalia ensiformis, UniProt P07374); assay: biochemical
pIC50: −log10 of the molar value.
# pIC50 values compiled below
readout-kind: pIC50

* COc1ccc2cc([C@H](C)C(=O)Nc3ccc(S(=O)(=O)Nc4cc(C)on4)cc3)ccc2c1 [Conjugate 8] | 4.53
* COc1ccc2cc([C@H](C)C(=O)Nc3ccc(S(=O)(=O)NC(=N)N)cc3)ccc2c1 [Conjugate 10] | 5.30
* COc1ccc2cc([C@H](C)C(=O)Nc3ccc(S(=O)(=O)Nc4onc(C)c4C)cc3)ccc2c1 [Conjugate 4] | 4.59
* COc1ccc2cc([C@H](C)C(=O)Nc3ccc(S(=O)(=O)NC(C)=O)cc3)ccc2c1 [Conjugate 9] | 4.69
* COc1ccc2cc([C@H](C)C(=O)Nc3ccc(S(=O)(=O)Nc4nccs4)cc3)ccc2c1 [Conjugate 5] | 5.24
* COc1ccc2cc([C@H](C)C(=O)Nc3ccc(S(=O)(=O)Nc4ncccn4)cc3)ccc2c1 [Conjugate 6] | 5.39
* COc1ccc2cc([C@H](C)C(=O)Nc3ccc(S(=O)(=O)Nc4nccc(C)n4)cc3)ccc2c1 [Conjugate 7] | 4.78
* COc1ccc2cc([C@H](C)C(=O)Nc3ccc(S(N)(=O)=O)cc3)ccc2c1 [Conjugate 3] | 5.17
